SUBJECT_OF_TEST: NPM-ALK-BaF3 (Homo sapiens, UniProt Q9UM73)
Construct: expressed in transfected cells; host or cells: Ba/F3 cells; the other entry of the earlier key: NPM1 (P06748, Nucleophosmin)
MEASUREMENT_NOTES: Growth inhibition of NPM-ALK transformed BaF3 cells (MTS)
Type: cell-based
EXPERIMENTAL_SETUP: 48 hours, Table 11
READOUT_TYPE: IC50 (nM)

Worked cases, answers included:
>  <TEST_SMILES>
COC(=O)c1ccccc1Nc1nc(Nc2cc(C)c(C3CCN(C)CC3)cc2OC)nc2cc[nH]c12

>  <IC50, nM>
1390

$$$$
>  <TEST_SMILES>
COC(=O)c1ccccc1Nc1nc(Nc2ccc(C(=O)N3CCC(N4CCN(C)CC4)CC3)cc2OC)nc2cc[nH]c12

>  <IC50, nM>
4080

$$$$
>  <TEST_SMILES>
COc1cc(N2CCN(C)CC2)ccc1Nc1nc(NCc2ccccc2S(=O)(=O)C(C)C)c2[nH]ccc2n1

>  <IC50, nM>
4830

$$$$

1 = COc1cc(N2CCN(C)CC2)ccc1Nc1nc(Nc2ccccc2SC)c2[nH]ccc2n1
2 = CNC(=O)c1ccccc1Nc1nc(Nc2ccc(N3CCC(N4CCN(C)CC4)CC3)cc2OC)nc2cc[nH]c12
Compare reported IC50 values for 1 and 2 . Which is lower? Label of pick, please.
1
(1: 703 nM, 2: 4660 nM)

* * *

SUBJECT_OF_TEST: EML4-ALK (L1196M)-BaF3 (Homo sapiens, UniProt Q9UM73, L1196M)
Construct: expressed in transfected cells; host or cells: Ba/F3 cells; the other entry of the earlier key: EML4 (Q9HC35, Echinoderm microtubule-associated protein-like 4)
MEASUREMENT_NOTES: Growth inhibition of EML4-ALK (L1196M) transformed BaF3 cells (MTS)
Type: cell-based
EXPERIMENTAL_SETUP: 48 hours, Table 11, read-out: EML4-ALK (L1196M) (IC50 nM)
READOUT_TYPE: IC50

>  <TEST_SMILES>
COC(=O)c1ccccc1Nc1nc(Nc2ccc(C(=O)N3CCOCC3)cc2OC)nc2cc[nH]c12

>  <IC50>
~9460 nM

$$$$
>  <TEST_SMILES>
CN1CCN(c2ccc(Nc3nc(Nc4ccccc4S(C)(=O)=O)c4[nH]ccc4n3)cc2)CC1

>  <IC50>
~3350 nM

$$$$
>  <TEST_SMILES>
COC(=O)c1cccc(Nc2nc(Nc3ccc(N4CCC(N5CCCC5)CC4)cc3OC)nc3cc[nH]c23)c1

>  <IC50>
~7400 nM

$$$$
>  <TEST_SMILES>
Cc1cc(Nc2nc(Nc3ccccc3S(=O)(=O)C(C)C)c3[nH]ccc3n2)c(OC(C)C)cc1C1CCN(C)CC1

>  <IC50>
~2650 nM

$$$$

Now for the molecule whose IC50 we want.
Item COC(=O)c1cccc(Nc2nc(Nc3ccc(N4CCC(N5CCN(C)CC5)CC4)cc3OC)nc3cc[nH]c23)c1 has what recorded IC50?
~2560 nM

* * *

SUBJECT_OF_TEST: EML4-ALK-BaF3 (Homo sapiens)
Construct: expressed in transfected cells; host or cells: Ba/F3 cells; the other entry of the earlier key: EML4 (Q9HC35, Echinoderm microtubule-associated protein-like 4)
MEASUREMENT_NOTES: Growth inhibition of EML4-ALK transformed BaF3 cells (MTS)
Format: cell-based
EXPERIMENTAL_SETUP: EML4-ALK-BaF3 cells, 48 hours, MTS; Table 12
Procedure: If compounds can inhibit the activity of ALK kinase or the activity of ALK signaling pathway, they can inhibit the growth of ALK transformed Ba/F3 cells. […] The broad-spectrum toxicity of compounds can be evaluated by determining the effect of the compounds on the growth of wild type BaF3 cells. […] 4) Calculation of IC50 value: the semi inhibitory concentration of the compound acting on the cells was calculated using GradPad Prism 5 software according to the cell inhibitory rate measured.
READOUT_TYPE: IC50

>  <COMPOUND>
COC(=O)c1cccc(Nc2nc(Nc3ccc(N4CCN(C)CC4)cc3OC)nc3ccn(C)c23)c1 [IIH-1]

>  <SUBJECT_OF_TEST>
EML4-ALK-BaF3 (Homo sapiens)

>  <VALUE>
1620 nM

$$$$

Item COC(=O)c1ccccc1Nc1nc(Nc2ccc(C(=O)N3CCC(N4CCN(C)CC4)CC3)cc2OC)nc2ccn(C)c12 [IIG-4] has what recorded IC50?
~1330 nM

Item CC(C)S(=O)(=O)c1ccccc1Nc1nc(Nc2ccc(N3CCC(O)CC3)cc2)nc2ccn(C)c12 [IID-3] has what recorded IC50?
2160 nM

Item COc1cc(N2CCC(N3CCN(C)CC3)CC2)ccc1Nc1nc(Nc2ccccc2SC)c2c(ccn2C)n1 [IIA-2] has what recorded IC50?
~1110 nM

* * *

SUBJECT_OF_TEST: NPM-ALK-BaF3 (Homo sapiens)
Construct: expressed in transfected cells; host or cells: Ba/F3 cells; the other entry of the earlier key: NPM1 (P06748, Nucleophosmin)
MEASUREMENT_NOTES: Growth inhibition of NPM-ALK transformed BaF3 cells (MTS)
Assay type: cell-based
EXPERIMENTAL_SETUP: 48 hours, Table 11
List of IC50 values.

Worked cases, answers included:
>  <COMPOUND>
COC(=O)c1ccccc1Nc1nc(Nc2ccc(N3CCOCC3)cc2)nc2cc[nH]c12 [IG-5]

>  <VALUE>
> 10000 nM

$$$$
>  <COMPOUND>
CSc1ccccc1CNc1nc(Nc2ccc(S(N)(=O)=O)cc2)nc2cc[nH]c12 [IL-4]

>  <VALUE>
> 10000 nM

$$$$
>  <COMPOUND>
COC(=O)c1ccccc1Oc1nc(Nc2ccc(S(N)(=O)=O)cc2)nc2cc[nH]c12 [IV-4]

>  <VALUE>
> 10000 nM

$$$$
>  <COMPOUND>
COC(=O)c1ccccc1Nc1nc(Nc2ccc(N3CCC(O)CC3)cc2OC(C)C)nc2cc[nH]c12 [IG-9]

>  <VALUE>
> 10000 nM

$$$$
>  <COMPOUND>
CCNc1nc(Nc2ccc(N3CCN(C)CC3)cc2OC)nc2cc[nH]c12 [IR-1]

>  <VALUE>
> 10000 nM

$$$$

Value wanted: IC50 (NPM-ALK-BaF3 (Homo sapiens)) of entry CS(=O)(=O)c1ccccc1Nc1nc(Nc2ccc(S(N)(=O)=O)cc2)nc2cc[nH]c12 [IC-4]
> 10000 nM

Value wanted: IC50 (NPM-ALK-BaF3 (Homo sapiens)) of entry COc1cc(C2CCN(C)CC2)c(C)cc1Nc1nc(Nc2ccccc2S(=O)(=O)C(C)C)c2[nH]ccc2n1 [ID-7]
~1170 nM

Value wanted: IC50 (NPM-ALK-BaF3 (Homo sapiens)) of entry CCNc1nc(Nc2ccc(N3CCC(N4CCN(C)CC4)CC3)cc2OC)nc2cc[nH]c12 [IR-2]
> 10000 nM

Value wanted: IC50 (NPM-ALK-BaF3 (Homo sapiens)) of entry COC(=O)c1ccccc1Oc1nc(Nc2ccc(N3CCN(C)CC3)cc2OC)nc2cc[nH]c12 [IV-1]
> 10000 nM

* * *

SUBJECT_OF_TEST: EML4-ALK (L1196M)-BaF3 (Homo sapiens, UniProt Q9UM73, L1196M)
Construct: expressed in transfected cells; host or cells: Ba/F3 cells; the other entry of the earlier key: EML4 (Q9HC35, Echinoderm microtubule-associated protein-like 4)
MEASUREMENT_NOTES: Growth inhibition of EML4-ALK (L1196M) transformed BaF3 cells (MTS)
Format: cell-based
EXPERIMENTAL_SETUP: 48 hours, Table 12, read-out: L1196M (IC50 nM)
READOUT_TYPE: IC50

>  <MOLECULE>
COc1cc(N2CCC(N3CCN(C)CC3)CC2)ccc1Nc1nc(Nc2ccccc2SC(C)C)c2c(ccn2C)n1 [IIB-2]

>  <IC50>
~853 nM

$$$$
>  <MOLECULE>
CC(C)S(=O)(=O)c1ccccc1Nc1nc(Nc2ccc(S(N)(=O)=O)cc2)nc2ccn(C)c12 [IID-4]

>  <IC50>
~6440 nM

$$$$
>  <MOLECULE>
COc1cc(N2CCN(C)CC2)ccc1Nc1nc(Nc2ccccc2SC(C)C)c2c(ccn2C)n1 [IIB-1]

>  <IC50>
~2800 nM

$$$$

Value wanted: IC50 (EML4-ALK (L1196M)-BaF3 (Homo sapiens, UniProt Q9UM73, L1196M)) of entry COc1cc(N2CCN(C)CC2)ccc1Nc1nc(Nc2ccccc2S(=O)(=O)C(C)C)c2c(ccn2C)n1 [IID-1]
~2960 nM

Value wanted: IC50 (EML4-ALK (L1196M)-BaF3 (Homo sapiens, UniProt Q9UM73, L1196M)) of entry CC(C)S(=O)(=O)c1ccccc1Nc1nc(Nc2ccc(N3CCN(C)CC3)cc2)nc2ccn(C)c12 [IID-5]
~1120 nM

Attribution: patent US10508118B2
